Test system: HCC-2998 colon
Test protocol: NCI tumour cell line growth inhibition, 48 h
Property: TGI

## Input Lab request: please report TGI under test system HCC-2998 colon for O=C1CSC(c2c[nH]c3ccccc23)N1c1ccc(Cl)cc1Cl (stereo not drawn)
## Output > 100 µM

## Input Lab request: please report TGI under test system HCC-2998 colon for O=C(c1ccc([N+](=O)[O-])cc1)N1CCCC1
## Output > 100 µM

## Input Lab request: please report TGI under test system HCC-2998 colon for C=C1C[C@@H]2C[C@@H](C)CC(O)[C@]2(CCCN)C1O (stereo partly drawn)
## Output > 100 µM

* * *

Test system: SK-MEL-28 melanoma
Test protocol: NCI tumour cell line growth inhibition, 48 h
This listing pairs compounds with measured GI50.

INSERT INTO results (compound, property, result) VALUES
  ('CC(=O)[O-].N.N.N.N.[Co+3].[O-][Cl+3]([O-])([O-])[O-].[OH3+]', 'GI50', '> 100000 nM'),
  ('CC(C)(C)OC(=O)Nc1ccc2c(c1)C(NC(=O)Nc1cccc(C#N)c1)CC(C)(C)O2 (centres undefined)', 'GI50', '5340 nM'),
  ('CN(C)CCCNc1nc2ccccc2c2[nH]c3ccccc3c12', 'GI50', '2040 nM');

## Input Please give the measured GI50 for this compound: CCn1c2ccccc2c2cc(C(=O)c3ccc(C)c4ccccc34)ccc21
## Output 477 nM

* * *

This listing pairs compounds with measured TGI.
Test system: HCT-116 colon
Test protocol: NCI tumour cell line growth inhibition, 48 h

INSERT INTO measurements (compound, tested_system, result) VALUES
  ('COc1ccc2nc3cc(Cl)ccc3c(Nc3cc(CN4CCCC4)c(O)c(CN4CCCC4)c3)c2n1', 'HCT-116 colon', '5.83 µM'),
  ('C[C@H]1[C@H](C)CC[C@]2(C(=O)OC3OC(CO)C(O)C(O)C3O)CC[C@]3(C)C(=CC[C@@H]4[C@@]5(C)C[C@@H](O)[C@@H]6OC(=O)c7cc(O)c(O)c(O)c7-c7c(cc(O)c(O)c7O)C(=O)OC[C@@]6(CO)[C@@H]5CC[C@]43C)[C@H]12 (stereo partly drawn)', 'HCT-116 colon', '> 100 µM');

Next compound, please.
## Input Please give the measured TGI for this compound: CC(C)c1ccc(NC(=O)Cc2ccc(Nc3ncnc4cc(-c5cnn(CCN(C)C)c5)ccc34)cc2)cc1
## Output 2.7 µM

* * *

Test system: HCC-2998 colon
Test protocol: NCI tumour cell line growth inhibition, 48 h; in the data active means GI50 below about 0.43 µM; inactive means the rest
Write down one outcome, taken from true (1) for active, false (0) for inactive

A selection of reference data follows.
INSERT INTO measurements (molecule, answer_label) VALUES
  ('CCCCn1c(=O)c(/C=C/C(=O)/C=C/c2cc3ccccc3n(CCCC)c2=O)cc2ccccc21', 'false (0)'),
  ('CCn1c2ccccc2c2cc(C(=O)c3ccc(C)c4ccccc34)ccc21', 'false (0)'),
  ('N#Cc1cccc(C2C3=C(COC3=O)N(CCO)c3cc4c(cc32)OCO4)c1 (stereo unspecified)', 'false (0)'),
  ('CC(C)(C)OC(=O)N[C@@H](Cc1ccccc1)C(=O)N(Cc1ccccc1)C1(C(=O)NCc2ccccc2)CCN(Cc2ccccc2)CC1', 'false (0)'),
  ('O=c1[nH]c(=O)n(C2CC(O)C(CO)O2)cc1C(F)(F)F (stereo unspecified)', 'false (0)');

## Input Entry Cc1cc(O)c(-c2ccc([C@@H](C)CN(C)C)cc2)c2c1[nH]c(=O)c1sccc12 : call = ?
## Output false (0)

## Input Entry O=C(Nc1cccc(C(F)(F)F)c1)Oc1ccc(Cl)c2cccnc12 : call = ?
## Output false (0)

## Input Entry CO/N=C(\COc1ccc2oc(-c3ccccc3)cc(=O)c2c1)c1ccc(F)cc1 : call = ?
## Output false (0)

## Input Entry CCN(CC)CCCCNc1c2ccc(Cl)cc2nc2ccc(OC)cc12 : call = ?
## Output false (0)

## Input Entry O=C1NC(c2ccccc2)C2(C(=O)O)CN(C3CC3)c3cc(N4CCNCC4)c(F)cc3C2N1 (stereo unspecified) : call = ?
## Output false (0)

## Input Entry COc1cc(NCCCCCN=C(N)NC(N)=NC(C)C)c2ncccc2c1 : call = ?
## Output false (0)

## Input Entry CC1SC(c2ccc(Cl)cc2Cl)N(NC(=O)C(O)c2ccccc2)C1=O (stereo unspecified) : call = ?
## Output false (0)

* * *

This listing pairs compounds with measured GI50.
Test system: 786-0 renal
Test protocol: NCI tumour cell line growth inhibition, 48 h

INSERT INTO results (compound, result) VALUES
  ('CC(=O)[O-].N.N.N.N.[Co+3].[O-][Cl+3]([O-])([O-])[O-].[OH3+]', '> 100 µM'),
  ('Nc1cccc2c1C(=O)c1cccc(NC(=O)c3ccccc3)c1C2=O', '0.646 µM'),
  ('CC(=O)[CH-]C(=O)c1ccccc1.CC(=O)[CH-]C(=O)c1ccccc1.[O-]c1ccc2c(c1)OCO2.[O-]c1ccc2c(c1)OCO2.[Ti+4]', '21.1 µM'),
  ('COc1c(N2CCN(CN3C(=O)C(=Nc4ccc(S(=O)(=O)Nc5ncccn5)cc4)c4cc(Cl)ccc43)C(C)C2)c(F)cc2c(=O)c(C(=O)O)cn(C3CC3)c12 (centres undefined)', '19.2 µM'),
  ('COc1ccc(S(=O)(=O)N(C(C)=O)c2ccccc2/C=C/c2cc[n+]([O-])cc2)cc1', '1.67 µM'),
  ('CN1CCN(CCCOc2cc(O)c3c(=O)cc(-c4ccccc4)oc3c2)CC1', '20.6 µM');

## Input Please give the measured GI50 for this compound: COc1cc(CNc2oc(-c3ccccc3)c(-c3ccccc3)c2C#N)cc(CN2CCN(C)CC2)c1O
## Output 1.68 µM

## Input Please give the measured GI50 for this compound: N#Cc1cc(S(=O)(=O)Nc2nc3ccccc3o2)c(SCc2ccccc2)cc1Cl
## Output 21.8 µM

## Input Please give the measured GI50 for this compound: CCn1c(-c2nonc2N)nc2c(N3CCCC3)nccc21
## Output > 18.6 µM

* * *

System: SNB-19 CNS
Test protocol: NCI tumour cell line growth inhibition, 48 h
Property: GI50

INSERT INTO assay_data (structure_string, tested_system, result) VALUES
  ('CN1CCN(CCCOc2cc(O)c3c(=O)cc(-c4ccccc4)oc3c2)CC1', 'SNB-19 CNS', '24.9 µM');

## Input Please give the measured GI50 for this compound: Cc1cccc2c1[nH]c(=O)c1c3ccccc3cn21
## Output 15.6 µM

## Input Please give the measured GI50 for this compound: Cc1ccc(C(=O)NC2CC2)cc1-c1ccc2[nH]ncc2c1
## Output > 25 µM

## Input Please give the measured GI50 for this compound: COc1cc(NCCCCCN=C(N)NC(N)=NC(C)C)c2ncccc2c1
## Output 2.56 µM

* * *

This listing pairs compounds with measured TGI.
System: NCI-H522 lung
Test protocol: NCI tumour cell line growth inhibition, 48 h
Reply with just the number (in µM).

INSERT INTO assay_data (compound, numeric_readout) VALUES
  ('COc1ccc2c(c1)CCc1c-2n[nH]c1-c1[nH]nc2c1CCc1cc(OC)ccc1-2', 67.4),
  ('C=C1C[C@@H]2O[C@H]3[C@H]4[C@@H](C[C@@H](C)[C@@H](OC(C)=O)[C@H]42)[C@@H](C)CO[C@@]3(C)[C@H](OC(=O)CCCCCCC)CC1=O', 42.6),
  ('COc1ccc(S(=O)(=O)N(C(C)=O)c2ccccc2/C=C/c2cc[n+]([O-])cc2)cc1', 1.65),
  ('COc1cc(NCCCCCN=C(N)NC(N)=NC(C)C)c2ncccc2c1', 4.58),
  ('c1ccc(OC2=NC3=S(S2)SC(Oc2ccccc2)=N3)cc1', 36.1);

## Input Please give the measured TGI for this compound: CCOC(=O)C(NC(=O)c1cccc(Cl)c1)(Nc1cccc(C)c1)C(F)(F)F (stereo not drawn)
## Output 20.5

## Input Please give the measured TGI for this compound: CC1(C)C=C(/C=C2/N(S(=O)(=O)C(F)(F)F)C(/C=C3/N(S(=O)(=O)C(F)(F)F)C(C)(C#N)CC3(C)C)=CC2(C)C)N=C1/C=C1/CC(C)(C)C(=O)N1 (stereo not drawn)
## Output 27.9

## Input Please give the measured TGI for this compound: COc1ccc2nc3cc(Cl)ccc3c(Nc3cc(CN4CCCC4)c(O)c(CN4CCCC4)c3)c2n1
## Output 3.14

## Input Please give the measured TGI for this compound: NC(=O)c1ccc[n+](C2=C([O-])c3ccccc3C(=O)/C2=N\S(=O)(=O)c2ccccc2)c1
## Output 24.1

* * *

System: SR leukemia
Test protocol: NCI tumour cell line growth inhibition, 48 h; in the data active = GI50 below about 0.43 µM; inactive = the rest
Numbered stars: 1 amine (or outer) side, 2 acyl side, 3 side chain; on linkers, the order of the positions; unused ones are H or OH. Bridge positions count the residues as written; N and C are the ends. Square brackets hold non-standard residues; d marks the D form. Peptide text beside a SMILES is read from it. I, II: the chains in the order shown. Actinocin(1to9) = Cc1c2oc3c(C)ccc(C(=O)[*:2])c3nc-2c(C(=O)[*:1])c(N)c1=O; NMeY = CN[CH](Cc1ccc(O)cc1)C(=O)O; Sar = CNCC(=O)O
Write down one outcome, taken from 1 (yes) = active, 0 (no) = inactive

A selection of reference data follows.
INSERT INTO measurements (molecule, answer_label) VALUES
  ('CN(C)CCCNc1nc2ccccc2c2[nH]c3ccccc3c12', '0 (no)'),
  ('Cc1cc(O)c(-c2ccc([C@@H](C)CN(C)C)cc2)c2c1[nH]c(=O)c1sccc12', '1 (yes)'),
  ('CS(=O)(=O)N(c1cc(-c2ccc3ncnc(Nc4ccc(F)c(Cl)c4)c3c2)cnc1Cl)S(C)(=O)=O', '0 (no)'),
  ('COc1ccc(CC2C(=O)OC(C)C(NC(=O)c3c4nc5c(C(=O)NC6C(=O)NC(C(C)C)C(=O)N7CCCC7C(=O)N(C)CC(=O)N(C)C(Cc7ccc(OC)cc7)C(=O)OC6C)ccc(C)c5oc-4c(C)c(=O)c3N)C(=O)NC(C(C)C)C(=O)N3CCCC3C(=O)N(C)CC(=O)N2C)cc1 (stereo not given) (I: TVP[Sar][NMeY](Me) / II: TVP[Sar][NMeY](Me); ester I:1-I:C, II:1-II:C; linker I:N-II:N via Actinocin(1to9); configuration not given here)', '1 (yes)'),
  ('CC[C@H](C)[C@H](NC(=O)c1cccn1C)C(=O)N(C)[C@H](C[C@@H](OC(C)=O)c1nc(C(=O)N[C@@H](Cc2ccccc2)C[C@H](C)C(=O)OC)cs1)C(C)C', '1 (yes)');

## Input Entry COc1cc2nccc(Oc3ccc(NC(=O)c4cn(C(C)C)c(=O)n(-c5ccc(F)cc5)c4=O)cc3F)c2cc1OC : call = ?
## Output 0 (no)

## Input Entry CO/N=C(\COc1ccc2oc(-c3ccccc3)cc(=O)c2c1)c1ccc(F)cc1 : call = ?
## Output 0 (no)

## Input Entry CNC(=O)c1cncc(/C=C/c2ccccc2Cl)c1 : call = ?
## Output 0 (no)

Where these numbers come from: PubChem BioAssay (NCI)
